# Tested on: NCI-N87 cells
# Protocol Details: Cell cytotoxicity with exatecan and trastuzumab deruxtecan, NCI-N87 cells
# Assay type: cell-based
# Condition Set: NCI-N87 cells, free exatecan alone

>  <Molecule>
CC[C@@]1(O)C(=O)OCc2c1cc1n(c2=O)Cc2c-1nc1cc(F)c(C)c3c1c2[C@@H](N)CC3 [exatecan, reference compound]

>  <Measurement Units>
nM

>  <IC50>
2.1

$$$$

* * *

# Tested on: SKBR3 cells
# Protocol Details: Competitive cell assay with SKBR3 cells
# Type: cell-based
# Condition Set: viability day 7, read-out: IC50 of free SN38

>  <Cpd Smiles>
CCc1c2c(nc3ccc(O)cc13)-c1cc3c(c(=O)n1C2)COC(=O)[C@]3(O)CC

>  <IC50, nM>
1.4

$$$$
